Target: Serotonin 2 (5-HT2) receptor (Rattus norvegicus, UniProt P30994+P08909+P14842)
Assay: The compound was tested for its binding affinity towards 5-hydroxytryptamine 2 receptor by displacing [3H]ketanserin radioligand in rat cerebral cortex
Format: tissue-based
readout: Ki (µM)

[
  {
    "structure": "CC(C)c1ccccc1N1CCN(Cc2ccc(CN3CCCCC3=O)n2C)CC1",
    "readout": "Ki",
    "bound operator": "=",
    "meas value": 0.137
  },
  {
    "structure": "COc1ccccc1N1CCN(Cc2ccc(CN3CCCCCC3=O)n2C)CC1",
    "readout": "Ki",
    "bound operator": "=",
    "meas value": 0.669
  },
  {
    "structure": "Cn1c(CN2CCN(c3cccc(F)c3)CC2)ccc1CN1CCCC1=O",
    "readout": "Ki",
    "bound operator": ">",
    "meas value": 0.1
  }
]

====

Target: Adrenergic receptor alpha-1 (Rattus norvegicus, UniProt P15823+P23944+P43140)
Experiment: The compound was tested for its binding affinity towards Alpha-1 adrenergic receptor by displacing [3H]WB-4101 radioligand in rat cerebral cortex
Type: tissue-based
# Lookup of reported Ki keyed by entry
readout: Ki (µM)

[
  {
    "structure": "Cn1c(CN2CCN(c3ccccc3C#N)CC2)ccc1CN1CCCC1=O",
    "unit string": "µM",
    "bound operator": "=",
    "meas value": 0.0637
  },
  {
    "structure": "Cn1c(CN2CCN(c3cccc(C(F)(F)F)c3)CC2)ccc1CN1CCCC1=O",
    "unit string": "µM",
    "bound operator": ">",
    "meas value": 1
  },
  {
    "structure": "CC(C)Oc1ccccc1N1CCN(Cc2ccc(CN3CCCCCC3=O)n2C)CC1",
    "unit string": "µM",
    "bound operator": "=",
    "meas value": 0.0163
  },
  {
    "structure": "CC(C)Oc1ccccc1N1CCN(Cc2ccc(CN3CCCC3=O)n2C)CC1",
    "unit string": "µM",
    "bound operator": "=",
    "meas value": 0.0073
  },
  {
    "structure": "CC(C)Oc1ccccc1N1CCN(Cc2ccc(CN3CCCCCCC3=O)n2C)CC1",
    "unit string": "µM",
    "bound operator": "=",
    "meas value": 0.0208
  }
]

====

Target: 5-hydroxytryptamine receptor 1A (Rattus norvegicus, UniProt P19327)
Sequence (P19327 whole entry): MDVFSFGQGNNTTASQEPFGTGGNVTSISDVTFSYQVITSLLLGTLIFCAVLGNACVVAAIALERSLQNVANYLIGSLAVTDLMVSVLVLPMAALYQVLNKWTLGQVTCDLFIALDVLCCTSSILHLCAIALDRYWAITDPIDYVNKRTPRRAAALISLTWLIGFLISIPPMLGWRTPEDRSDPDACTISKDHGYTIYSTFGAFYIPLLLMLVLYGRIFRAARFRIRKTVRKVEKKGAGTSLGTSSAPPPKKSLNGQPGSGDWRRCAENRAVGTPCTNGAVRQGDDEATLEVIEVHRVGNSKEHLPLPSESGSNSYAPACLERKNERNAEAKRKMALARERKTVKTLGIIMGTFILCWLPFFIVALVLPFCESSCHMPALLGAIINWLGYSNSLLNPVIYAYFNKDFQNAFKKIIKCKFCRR
Assay: biochemical
Description: The compound was tested for its binding affinity towards 5-hydroxytryptamine 1A receptor by displacing [3H]WB-4101 radioligand in rat hippocampus
readout: Ki (nM)

[
  {
    "structure": "CN(C)CCCN1c2ccccc2Sc2ccc(Cl)cc21",
    "unit string": "nM",
    "meas value": 179
  }
]

====

Target: 5-hydroxytryptamine receptor 1B (Rattus norvegicus, UniProt P28564)
Sequence (P28564 whole entry): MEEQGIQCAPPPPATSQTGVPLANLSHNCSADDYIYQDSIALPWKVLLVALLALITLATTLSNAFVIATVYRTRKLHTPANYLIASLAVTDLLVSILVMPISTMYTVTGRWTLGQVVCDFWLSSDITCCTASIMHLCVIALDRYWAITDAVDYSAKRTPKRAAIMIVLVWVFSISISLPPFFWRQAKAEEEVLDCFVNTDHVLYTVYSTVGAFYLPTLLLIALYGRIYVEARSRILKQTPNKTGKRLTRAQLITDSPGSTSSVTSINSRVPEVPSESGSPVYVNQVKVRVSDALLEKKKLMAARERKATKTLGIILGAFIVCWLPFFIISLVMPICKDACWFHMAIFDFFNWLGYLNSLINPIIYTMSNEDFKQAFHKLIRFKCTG
Assay: The compound was tested for its binding affinity towards 5-hydroxytryptamine 1B receptor by displacing [3H]serotonin radioligand in rat cerebral cortex
Format: tissue-based
pKi: −log10 of the molar value.

[
  {
    "structure": "CC(C)Oc1ccccc1N1CCN(Cc2ccc(CN3CCCCCCC3=O)n2C)CC1",
    "system": "5-hydroxytryptamine receptor 1B (Rattus norvegicus, UniProt P28564)",
    "pKi": 7.12
  },
  {
    "structure": "Cn1c(CN2CCN(c3cccc(Cl)c3)CC2)ccc1CN1CCCCC1=O",
    "system": "5-hydroxytryptamine receptor 1B (Rattus norvegicus, UniProt P28564)",
    "pKi": 7.02
  },
  {
    "structure": "CCc1ccccc1N1CCN(Cc2ccc(CN3CCCCC3=O)n2C)CC1",
    "system": "5-hydroxytryptamine receptor 1B (Rattus norvegicus, UniProt P28564)",
    "pKi": 7.00
  }
]

====

Target: Adrenergic receptor alpha-1 (Rattus norvegicus, UniProt P15823+P23944+P43140)
Assay: The compound was tested for its binding affinity towards Alpha-1 adrenergic receptor by displacing [3H]WB-4101 radioligand in rat cerebral cortex
Format: tissue-based
readout: log10 of Ki (log10 of the value in nM)

[
  {
    "structure": "Cn1c(CN2CCN(c3ccccc3Cl)CC2)ccc1CN1CCCC1=O",
    "system": "Adrenergic receptor alpha-1 (Rattus norvegicus, UniProt P15823+P23944+P43140)",
    "log10 of Ki": 1.73
  },
  {
    "structure": "Cc1nc2sccn2c(=O)c1CCN1CCC(=C(c2ccc(F)cc2)c2ccc(F)cc2)CC1",
    "system": "Adrenergic receptor alpha-1 (Rattus norvegicus, UniProt P15823+P23944+P43140)",
    "log10 of Ki": 1.69
  },
  {
    "structure": "COc1cccc(N2CCN(Cc3ccc(CN4CCCC4=O)n3C)CC2)c1",
    "system": "Adrenergic receptor alpha-1 (Rattus norvegicus, UniProt P15823+P23944+P43140)",
    "log10 of Ki": 3.00
  },
  {
    "structure": "CCOc1ccccc1N1CCN(Cc2ccc(CN3CCCC3=O)n2C)CC1",
    "system": "Adrenergic receptor alpha-1 (Rattus norvegicus, UniProt P15823+P23944+P43140)",
    "log10 of Ki": 1.44
  },
  {
    "structure": "CCCc1ccccc1N1CCN(Cc2ccc(CN3CCCC3=O)n2C)CC1",
    "system": "Adrenergic receptor alpha-1 (Rattus norvegicus, UniProt P15823+P23944+P43140)",
    "log10 of Ki": 1.42
  }
]

====

# Lookup of reported ED50 keyed by entry
System: Rattus norvegicus
Experiment: Antipsychotic activity at a dose 10 times the ED50 value for CAR block for production of catalepsy in the rat (following i.p. dosing)
Assay type: functional
Conditions: ip

[
  {
    "molecule": "COc1ccccc1N1CCN(Cc2ccc(CN3CCCC3=O)n2C)CC1",
    "ED50": "2.1 mg/kg"
  },
  {
    "molecule": "Cc1ccccc1N1CCN(Cc2ccc(CN3CCCC3=O)n2C)CC1",
    "ED50": "> 15 mg/kg"
  },
  {
    "molecule": "COc1ccccc1N1CCNCC1",
    "ED50": "5.6 mg/kg"
  },
  {
    "molecule": "CC(C)Oc1ccccc1N1CCN(Cc2ccc(CN3CCCCCC3=O)n2C)CC1",
    "ED50": "5.7 mg/kg"
  },
  {
    "molecule": "CN1CCN(CCCN2c3ccccc3Sc3ccc(C(F)(F)F)cc32)CC1",
    "ED50": "0.5 mg/kg"
  },
  {
    "molecule": "CCN1CCC[C@H]1CNC(=O)c1cc(S(N)(=O)=O)ccc1OC [LEVOSULPIRIDE]",
    "ED50": "> 40 mg/kg"
  }
]

====

Test system: Rattus norvegicus
Test: Antipsychotic activity at a dose 10 times the ED50 value for CAR block for production of catalepsy in the rat (following i.p. dosing)
Assay type: functional
Settings: ip
readout: ED50 (mg/kg)

[
  {
    "molecule": "CCC(C)Oc1ccccc1N1CCN(Cc2ccc(CN3CCCCC3=O)n2C)CC1 (configuration not stated)",
    "readout": "ED50",
    "bound operator": "=",
    "meas value": 3.7
  },
  {
    "molecule": "O=C1CC2(CCCC2)CC(=O)N1CCCCN1CCN(c2ncccn2)CC1",
    "readout": "ED50",
    "bound operator": "=",
    "meas value": 4.5
  },
  {
    "molecule": "COc1ccccc1N1CCN(Cc2ccc(CN3CCCCC3=O)n2C)CC1",
    "readout": "ED50",
    "bound operator": "=",
    "meas value": 2.3
  },
  {
    "molecule": "Cn1c(CN2CCN(c3ccccc3O)CC2)ccc1CN1CCCC1=O",
    "readout": "ED50",
    "bound operator": ">",
    "meas value": 15
  },
  {
    "molecule": "Cn1c(CN2CCN(c3ccccc3C#N)CC2)ccc1CN1CCCC1=O",
    "readout": "ED50",
    "bound operator": ">",
    "meas value": 15
  },
  {
    "molecule": "Cn1c(CN2CCN(c3cccc(F)c3)CC2)ccc1CN1CCCC1=O",
    "readout": "ED50",
    "bound operator": ">",
    "meas value": 15
  },
  {
    "molecule": "Cn1c(CN2CCN(c3cccc([N+](=O)[O-])c3)CC2)ccc1CN1CCCCC1=O",
    "readout": "ED50",
    "bound operator": ">",
    "meas value": 15
  },
  {
    "molecule": "Cn1c(CN2CCN(c3ccccc3)CC2)ccc1CN1CCCC1=O",
    "readout": "ED50",
    "bound operator": ">",
    "meas value": 15
  },
  {
    "molecule": "Cn1c(CN2CCN(c3cccc(C(F)(F)F)c3)CC2)ccc1CN1CCCC1=O",
    "readout": "ED50",
    "bound operator": "=",
    "meas value": 5.8
  },
  {
    "molecule": "CN(C)CCCN1c2ccccc2Sc2ccc(Cl)cc21",
    "readout": "ED50",
    "bound operator": "=",
    "meas value": 1.9
  },
  {
    "molecule": "Cn1c(CN2CCN(c3cccc([N+](=O)[O-])c3)CC2)ccc1CN1CCCC1=O",
    "readout": "ED50",
    "bound operator": "=",
    "meas value": 15
  },
  {
    "molecule": "CCCCc1ccccc1N1CCN(Cc2ccc(CN3CCCC3=O)n2C)CC1",
    "readout": "ED50",
    "bound operator": ">",
    "meas value": 15
  }
]
